Entries and their cell viability
Tested on: HepG2
ASSAY_SUMMARY: cell viability relative to DMSO; higher = less toxic
SETUP_CONDITIONS: 72 h; 100 nM

>  <COMPOUND>
Nc1nc(OCc2ccccc2)c2nc[nH]c2n1 [O6-benzylguanine]

>  <VALUE_UNIT>
%

>  <cell viability>
96.8

$$$$
>  <COMPOUND>
Cc1ncc[nH]1 [2-methylimidazole]

>  <VALUE_UNIT>
%

>  <cell viability>
89.7

$$$$
>  <COMPOUND>
Cc1nn(C)c2c1C(c1ccc(C(F)(F)F)cc1)C(C#N)=C(N)O2 (stereo not drawn) [BQU57]

>  <VALUE_UNIT>
%

>  <cell viability>
103

$$$$
>  <COMPOUND>
C[C@@H]1C[C@H]2[C@@H]3C[C@H](F)C4=CC(=O)C=C[C@]4(C)[C@@]3(Cl)[C@@H](O)C[C@]2(C)[C@H]1C(=O)COC(=O)C(C)(C)C [clocortolone-pivalate]

>  <VALUE_UNIT>
%

>  <cell viability>
99.1

$$$$
>  <COMPOUND>
C[C@@H]1CCN(C(=O)CC#N)C[C@@H]1N(C)c1ncnc2[nH]ccc12

>  <VALUE_UNIT>
%

>  <cell viability>
105

$$$$
>  <COMPOUND>
CN(C)[C@@H](CCOc1cccc2ccccc12)c1ccccc1 [dapoxetine]

>  <VALUE_UNIT>
%

>  <cell viability>
97.1

$$$$
>  <COMPOUND>
Cc1ccc(S(=O)(=O)N2CCC[C@H]2c2ccc(F)cc2)cc1 [Ro-67-7476]

>  <VALUE_UNIT>
%

>  <cell viability>
96.2

$$$$
>  <COMPOUND>
O=C(N[C@H]1CCN(C(=O)c2cc(C(F)(F)F)cc(C(F)(F)F)c2)[C@H](Cc2ccc(Cl)cc2)C1)c1ccnc2ccccc12 [AV-608]

>  <VALUE_UNIT>
%

>  <cell viability>
98.9

$$$$
>  <COMPOUND>
C=CC(=O)Nc1cccc(Nc2nc(Nc3ccc(N4CCN(C(C)=O)CC4)cc3OC)ncc2C(F)(F)F)c1 [rociletinib]

>  <VALUE_UNIT>
%

>  <cell viability>
90.2

$$$$
>  <COMPOUND>
CC1=C(C(=O)Nc2cc3cn[nH]c3cc2F)C(c2ccc(C(F)(F)F)cc2)CC(=O)N1 (stereo not drawn)

>  <VALUE_UNIT>
%

>  <cell viability>
104

$$$$
>  <COMPOUND>
C[C@@H](O)[C@H]1C(=O)N2C(C(=O)O)=C(S[C@@H]3CN[C@H](C(=O)Nc4cccc(C(=O)O)c4)C3)[C@H](C)[C@H]12 [ertapenem]

>  <VALUE_UNIT>
%

>  <cell viability>
93.2

$$$$
>  <COMPOUND>
COc1ccc(N(C)c2nc(C)nc3ccccc23)cc1 [verubulin]

>  <VALUE_UNIT>
%

>  <cell viability>
34.3

$$$$
>  <COMPOUND>
Cc1ncc(NC(=O)c2ccc(CN3CCN(C)CC3)c(C(F)(F)F)c2)cc1Nc1nccc(-c2cccnc2)n1 [flumatinib]

>  <VALUE_UNIT>
%

>  <cell viability>
102

$$$$
>  <COMPOUND>
Cn1cc(-c2ccc3ncc(Cc4ccc5ncccc5c4)n3n2)cn1 [NVP-BVU972]

>  <VALUE_UNIT>
%

>  <cell viability>
87.2

$$$$
>  <COMPOUND>
Cc1c(-c2ccc(O)cc2)n(Cc2ccc(OCCN3CCCCCC3)cc2)c2ccc(O)cc12 [bazedoxifene]

>  <VALUE_UNIT>
%

>  <cell viability>
95.3

$$$$
>  <COMPOUND>
Cc1cc(O)c2c(c1)C(=O)c1cc(O)cc(O)c1C2=O [emodin]

>  <VALUE_UNIT>
%

>  <cell viability>
105

$$$$
>  <COMPOUND>
CO[C@@H]1[C@H](O)[C@@H](CO)O[C@H]1n1cnc2c(NC3CCCCC3)ncnc21 [SDZ-WAG-994]

>  <VALUE_UNIT>
%

>  <cell viability>
104

$$$$
>  <COMPOUND>
C=C(CC)C(=O)c1ccc(OCC(=O)O)c(Cl)c1Cl [etacrynic-acid]

>  <VALUE_UNIT>
%

>  <cell viability>
105

$$$$
